protocol notes: Single dose PO or IV plasma pharmacokinetics and tolerability in BALB/c mice
experimental context: male, BALB/c, mouse, in vivo, po, 60 mg/kg
readout kind: AUC (µM·h)

>>> print(df.to_string())
                    structure_smiles_string  data_value
0  CCCCCCCCCCCCCCCCCCOC[C@H](COP(=O)(O)OC[C@H]1O[C@@](C#N)(c2ccc3c(N)ncnn23)[C@H](O)[C@@H]1O)OCc1ccccc1         199

---

protocol notes: in vivo
experimental context: male, BALB/c, mouse, po, 180 mg/kg
readout kind: CL/F (mL/min/kg)

>>> df
                    structure_smiles_string  data_value
0  CCCCCCCCCCCCCCCCCCOC[C@H](COP(=O)(O)OC[C@H]1O[C@@](C#N)(c2ccc3c(N)ncnn23)[C@H](O)[C@@H]1O)OCc1ccccc1        14.1

---

protocol notes: Cell viability assay (CellTiter-Glo), Huh7.5
experimental context: human, Huh7.5 cells
readout kind: CC50 at 48 h

>>> print(df.to_string())
                                   compound  data_value
0  N#C[C@@]1(c2ccc3c(N)ncnn23)O[C@H](CO)[C@@H](O)[C@H]1O [RVn, reference compound]    > 100 µM

---

protocol notes: Single dose PO or IV plasma pharmacokinetics and tolerability in BALB/c mice
experimental context: IV, 7 mg/kg, BALB/c mice, plasma
Below, each entry is listed with its recorded Cmax.

compound	Cmax, µM
CCCCCCCCC=CCCCCCCCCOCC(COP(=O)(O)OCC1OC(C#N)(c2ccc3c(N)ncnn23)C(O)C1O)OCc1ccc(OC)c(F)c1 (centres unmarked)	30.2
CCCCCCCCCCCCCCCCCCOCC(COP(=O)(O)OC[C@H]1O[C@@](C#N)(c2ccc3c(N)ncnn23)[C@H](O)[C@@H]1O)OCc1ccc(C#N)cc1 (some centres unmarked)	116

---

protocol notes: in vivo
experimental context: male, BALB/c, mouse, po, 20 mg/kg
readout kind: CL/F (mL/min/kg)

>>> print(df.to_string())
                    structure_smiles_string  readout_kind  data_value
0  CCCCCCCCCCCCCCCCCCOC[C@H](COP(=O)(O)OC[C@H]1O[C@@](C#N)(c2ccc3c(N)ncnn23)[C@H](O)[C@@H]1O)OCc1ccccc1          CL/F        4.35

---

protocol notes: Single dose PO or IV plasma pharmacokinetics and tolerability in BALB/c mice
experimental context: male, BALB/c, mouse, in vivo, po, 20 mg/kg
readout kind: Cmax (µM)

                    structure_smiles_string  readout_kind  data_value
0  CCCCCCCCCCCCCCCCCCOC[C@H](COP(=O)(O)OC[C@H]1O[C@@](C#N)(c2ccc3c(N)ncnn23)[C@H](O)[C@@H]1O)OCc1ccccc1          Cmax        10.6

---

protocol notes: in vivo
experimental context: male, BALB/c, mouse, po, 20 mg/kg
readout kind: half-life (h)

                    structure_smiles_string  data_value
0  CCCCCCCCCCCCCCCCCCOC[C@H](COP(=O)(O)OC[C@H]1O[C@@](C#N)(c2ccc3c(N)ncnn23)[C@H](O)[C@@H]1O)OCc1ccccc1        4.46
